System: SK-MEL-28 melanoma
test-name: NCI tumour cell line growth inhibition, 48 h; in the data active = GI50 below about 0.43 µM; inactive = the rest
Could you please pick one outcome from this set? 1.0 = active, 0.0 = inactive

> print(dat)
                                   molecule  qualitative.label
1  CC1(C)CC(=O)C=C(/C=C/Sc2c(Cl)c(Cl)nc(Cl)c2Cl)C1                0.0
2  CN(C)C1CCN(Cc2ccc(NC(=O)c3cncc(C#Cc4cnc(N)c5ncccc45)c3)cc2C(F)(F)F)CC1                0.0
3  Cc1ccccc1C1=C(c2cn(C)c3ccccc23)C(=O)NC1=O                0.0
4  COc1ccc2c(c1)N(Cc1ccc(Cl)cc1)CCC2N1CCCC1=O (configuration not stated)                0.0
5  O=C1Nc2ccccc2/C1=C\c1c(-c2ccccc2)nc2sccn12                0.0
6  O=C1C(=c2ccc(=C3C(=O)c4ccc([N+](=O)[O-])cc4[N+]3=O)cc2)N([O-])c2cc([N+](=O)[O-])ccc21                0.0
7         OCc1ccc(-c2csc(-c3ccc(CO)o3)c2)o1                0.0
8     Cc1ccc(C)c2c1C(=O)N(c1ccc(F)cc1F)C2=O                0.0

Short answer needed: outcome of this test for `CCn1c(-c2nonc2N)nc2c(C#CC(C)(C)O)ncc(OC3CCNCC3)c21` ?
0.0
